Data provenance is ChEMBL document CHEMBL1201862.

For each of the molecules below, state its GI50.
# Tested on: MDA-MB-231
# Experiment: NCI tumour cell line growth inhibition, 48 h
Activity calls are given as the source filed them. No stated cut-off is given here; in the data, active = GI50 up to about 1.1 µM and inactive = higher.

Field: example entries. Status: answers known.
CC(=O)c1ccc2c3c1[C@H]1O[C@H]1c1cccc(c1-3)[C@@H]1O[C@H]21    2.14 µM (inactive)
O=C1c2ccccc2CN1c1ccc(O)cc1    > 100 µM (inactive)
O=C(O)CCC(NC(=O)/C(=C/c1ccccc1)NC(=O)c1ccccc1)C(=O)O (configuration not stated)    > 100 µM (inactive)
CN(/N=C/c1ccnc2ccccc12)c1ccc(Cl)cc1[N+](=O)[O-]    > 100 µM (inactive)

Record GI50 for all entries; do not skip any.
1. O=C(O)c1ccc(C=C2Sc3ccccc3S2)cc1
2. Nc1cnc2c(c1)c(=O)nc1n2CCS1
3. O/N=C1/Nc2cc(Cl)ccc2C(=S)N2CSCC12 (configuration not stated)
4. COc1cc(-c2oc3c(OC)c(O)c(OC)c(O)c3c(=O)c2OC)cc(O)c1OC

Result ::
["> 100 µM (inactive)", "80 µM (inactive)", "> 100 µM (inactive)", "46.2 µM (inactive)"]

Provide reported GI50 for each item, in the same order as listed.
1. Cc1ccccc1/N=N/c1ccc(N/N=C2/CCCNC2=O)c(C)c1
2. COC(=O)C(Cc1cn(C(C)n2cc(CC(NC(C)=O)C(=O)OC)c3ccccc32)c2ccccc12)NC(C)=O (configuration not stated)
3. CCCCC(/C=C\COC1CCCCO1)=C/C(=O)OCC (configuration not stated)
4. CC1(C)OC2OC(COC(=O)C=[N+]=[N-])C3OC(C)(C)OC3C2O1 (configuration not stated)

Result ::
> 100 µM (inactive)
44.5 µM (inactive)
> 100 µM (inactive)
> 100 µM (inactive)

* * *

# Tested on: UACC-62
# Experiment: NCI tumour cell line growth inhibition, 48 h
The source made the active and inactive calls. No stated cut-off is given here; in the data, active = GI50 up to about 1.1 µM and inactive = higher.
Outcomes you can answer with include only these: t for active, f for inactive

As a guide, the following entries are already answered.
COc1cc(O)c(C(=O)/C=C/c2ccccc2)c(OC)c1    f
COc1ccc2c(c1OC)C(=O)N1C2=Cc2c(cc3c(c2OC)OCO3)CC1N(C)C (stereo unspecified)    f
Cc1ccc(Cc2n[nH]c(=O)n2N2C(=O)c3ccccc3C2=O)cc1    f
N#CC(C#N)=C1/C(=C/C=C/C=C/C=C/c2ccc(N3CCCCC3)s2)S(=O)(=O)c2ccccc21    f
Cc1nc2c(O)cccc2c(=O)[nH]1    f

Query :: Outcome logged for Cc1ccc(-c2nc(N/N=C/C=C/c3ccccc3)c3ccccc3n2)cc1 in this assay:
Result :: f

Query :: For NC(=O)c1nc[nH]c1/N=N/SCC(N)C(=O)O (stereo unspecified) , which call appears in the assay record?
Result :: f

Query :: Hey, what did the test say about CCC(=S)N(C)O ?
Result :: f

Query :: Tell me the assay call for Nc1nncc2[nH]cnc12 please.
Result :: f

Query :: Tell me the recorded outcome of this test for CN1C(=O)C2CCCC(=O)N2c2cccnc21 (stereo unspecified) .
Result :: f

Query :: Call for entry CCCCc1ccc(Nc2nc(N)c3ncn(COCCO)c3n2)cc1 :
Result :: f

Query :: Please state the recorded outcome for this compound: Cc1ccc(C(=O)/C=C(\O)C(=O)NC23CC4CC(CC(C4)C2)C3)cc1
Result :: f

Query :: Please let me know the test result on file for CC[C@@]1(O)C(=O)OCc2c1cc1n(c2=O)Cc2c-1nc1ccccc1c2/C=N\NC(=O)C(N)Cc1c[nH]c2ccccc12 (stereo partly specified) .
Result :: t

* * *

Task for the reader: assign each of the following compounds its reported GI50.
# System: SF-268
# Experiment: NCI tumour cell line growth inhibition, 48 h
Activity calls are given as the source filed them. Rule as the data show it: active = GI50 up to about 1.1 µM and inactive = higher.

Some solved entries appear below for comparison.
O=c1[nH]nc(-c2ccccc2)c2[nH]c(-c3ccccc3)cc12    > 100 µM (inactive)
CC(C)[Si](OC1=CCC[C@H]2NC(=O)[C@@H](Cc3ccccc3)[C@@]12C)(C(C)C)C(C)C    12.1 µM (inactive)
CC(C)N(CCn1c2c3ccccc3ccc2c2oc(=O)c3ccccc3c21)C(C)C    > 69.7 µM (inactive)
C=CCc1cc(OC)c2c(c1)C(OC(C)=O)CC(c1ccc(OC)c(OC)c1)O2 (centres undefined)    > 100 µM (inactive)
O=c1c(C(c2ccc([N+](=O)[O-])cc2)c2c(O)oc3ccccc3c2=O)c(O)oc2ccccc12    > 100 µM (inactive)

Report GI50 for every entry below.
1. CO/C(=N\N=C\c1cc(OC)ccc1OC)c1ccncc1
2. C[C@H](CCc1nc(C#N)c(N)o1)[C@H]1CC[C@H]2[C@@H]3CCC4C[C@@H](O)CC[C@]4(C)[C@H]3C[C@@H](O)[C@]12C (some centres undefined)
3. c1ccc(C(c2ccccc2)c2ccccn2)cc1
4. CCCCc1ccc(Nc2nc(N)c3ncn(COCCO)c3n2)cc1

Result ::
> 10 µM (inactive)
11.3 µM (inactive)
> 100 µM (inactive)
33 µM (inactive)

* * *

# Tested on: BT-549
# Experiment: NCI tumour cell line growth inhibition, 48 h
Activity calls are given as the source filed them. Rule as the data show it: active = GI50 up to about 1.1 µM and inactive = higher.
I'd be grateful if you could share measured GI50 for these entries.

Past entries and their recorded results:
O=C1C([P+](c2ccccc2)(c2ccccc2)c2ccccc2)=C([O-])C(=Cc2ccc(Cl)c(Cl)c2)C([O-])=C1[P+](c1ccccc1)(c1ccccc1)c1ccccc1    2.27 µM (inactive)
Fc1cc(F)c(F)c(S)c1F    26 µM (inactive)
CC(=O)c1ccc(/N=N/N2CCCC2)cc1    > 100 µM (inactive)

Look at each compound and report its GI50.
1. COc1cc2c(cc1OC)-c1[nH]c3ccc(C#N)cc3c1CC(=O)N2
2. COc1ccc(SCc2cc(OCc3ccccc3)c(OCc3ccccc3)c(OCc3ccccc3)c2)cc1
3. O=[N+]([O-])c1ccc(C(=S)Nc2ccccc2)o1
4. COc1ccc(C(=O)C#Cc2cnc(OC)nc2OC)cc1
5. Cc1cc(-c2nc3c(O)cccc3s2)ccc1N
6. N#CC(C#N)=C1/C(=C/C=C/C=C/C=C/c2ccc(N3CCCCC3)s2)S(=O)(=O)c2ccccc21
7. O=c1[nH]cnc2c1sc1nc3ccccc3n12

Result ::
["10.5 µM (inactive)", "2.24 µM (inactive)", "4.76 µM (inactive)", "1.6 µM (inactive)", "22.1 µM (inactive)", "> 100 µM (inactive)", "> 100 µM (inactive)"]

* * *

# Test system: MDA-N
# Experiment: NCI tumour cell line growth inhibition, 48 h
Calls of active or inactive are those of the source. Cut-off read from the data, not from the text of the source: active = GI50 up to about 1.1 µM and inactive = higher.
Give GI50 for every item shown.

Count: 3. Required value per item: GI50.
1. CC(=O)Oc1cccc2c1C(=O)c1c(OC(C)=O)cc(C)cc1C2=O
2. NNC1=N/C(=C\c2ccccc2O)C(=O)N1
3. CCC(=S)N(C)O

Result ::
58.5 µM (inactive)
42.2 µM (inactive)
35.9 µM (inactive)

* * *

# Test system: TK-10
# Experiment: NCI tumour cell line growth inhibition, 48 h
The source made the active and inactive calls. Cut-off read from the data, not from the text of the source: active = GI50 up to about 1.1 µM and inactive = higher.
Reply using exactly one outcome from yes (1) = active, no (0) = inactive

CN1CCCCCC(=N\O)/C(=N/O)CCCCC1    no (0)

Query :: Hey, what did the test say about Cc1ccc(-c2c3nc(c(-c4ccc(C)cc4)c4ccc([nH]4)c(-c4ccc(OCC5COC(C)(C)O5)cc4)c4nc(c(-c5ccc(C)cc5)c5ccc2[nH]5)C=C4)C=C3)cc1 (centres undefined) ?
Result :: no (0)

Query :: What call does the record list for COC(=O)C1Cc2c([nH]c3ccccc23)C(c2cccc(O)c2)N1 (centres undefined) ?
Result :: no (0)

Query :: What classification did CC(C)(C)C(=O)CP(=O)(O)O end up with in this test?
Result :: no (0)

* * *

# System: SNB-19
# Experiment: NCI tumour cell line growth inhibition, 48 h
Calls of active or inactive are those of the source. No stated cut-off is given here; in the data, active = GI50 up to about 1.1 µM and inactive = higher.
Outcomes you can answer with include only these: active, inactive

Sample answers from the record:
COc1ccc2c(c1OC)C(=O)N1C2=Cc2c(cc3c(c2OC)OCO3)CC1N(C)C (stereo not given)    inactive
COc1ccc(SCc2cc(OCc3ccccc3)c(OCc3ccccc3)c(OCc3ccccc3)c2)cc1    inactive
CC[C@@]1(O)C(=O)OCc2c1cc1n(c2=O)Cc2c-1nc1ccccc1c2CC[Si](C)(C)C    active
Cc1ccc(Cc2n[nH]c(=O)n2N2C(=O)c3ccccc3C2=O)cc1    inactive
CC(=O)O[C@H]1C(=O)[C@@]2(C)C([C@H](OC(=O)c3ccccc3)[C@]3(O)C[C@H](OC(=O)[C@H](O)[C@H](NC(=O)c4ccccc4)c4ccc(Cl)cc4)C(C)=C1C3(C)C)C1(OC(C)=O)CO[C@@H]1C[C@@H]2O (stereo not given in full)    active
O=[N+]([O-])c1ccc(COc2cccc3cccnc23)cc1    inactive

Query :: Assay result, entry Cc1c(NC(=O)c2cc([N+](=O)[O-])cc([N+](=O)[O-])c2)c(=O)n(-c2ccccc2)n1C — outcome?
Result :: inactive

Query :: Hi, do you know how CCOC(=O)CCC(NC(=O)c1ccc(Nc2nc3ccccc3nc2C(=O)OCC)s1)C(=O)OCC (stereo not given) came out in this test?
Result :: inactive

Query :: For CCOC(=O)C1CCCCN1CCc1c[nH]c2ccccc12 (stereo not given) , what call appears in the results of this test?
Result :: inactive

Query :: Dear all, I need the recorded test outcome for N/N=C(\N)SCc1ccc(N=C=S)cc1 , thank you.
Result :: inactive
